# target.desc: gH/gL of HCMV strain Towne (on virus) (human cytomegalovirus (strain Towne), UniProt P17176 30-742)
# Sequence (P17176 30-742): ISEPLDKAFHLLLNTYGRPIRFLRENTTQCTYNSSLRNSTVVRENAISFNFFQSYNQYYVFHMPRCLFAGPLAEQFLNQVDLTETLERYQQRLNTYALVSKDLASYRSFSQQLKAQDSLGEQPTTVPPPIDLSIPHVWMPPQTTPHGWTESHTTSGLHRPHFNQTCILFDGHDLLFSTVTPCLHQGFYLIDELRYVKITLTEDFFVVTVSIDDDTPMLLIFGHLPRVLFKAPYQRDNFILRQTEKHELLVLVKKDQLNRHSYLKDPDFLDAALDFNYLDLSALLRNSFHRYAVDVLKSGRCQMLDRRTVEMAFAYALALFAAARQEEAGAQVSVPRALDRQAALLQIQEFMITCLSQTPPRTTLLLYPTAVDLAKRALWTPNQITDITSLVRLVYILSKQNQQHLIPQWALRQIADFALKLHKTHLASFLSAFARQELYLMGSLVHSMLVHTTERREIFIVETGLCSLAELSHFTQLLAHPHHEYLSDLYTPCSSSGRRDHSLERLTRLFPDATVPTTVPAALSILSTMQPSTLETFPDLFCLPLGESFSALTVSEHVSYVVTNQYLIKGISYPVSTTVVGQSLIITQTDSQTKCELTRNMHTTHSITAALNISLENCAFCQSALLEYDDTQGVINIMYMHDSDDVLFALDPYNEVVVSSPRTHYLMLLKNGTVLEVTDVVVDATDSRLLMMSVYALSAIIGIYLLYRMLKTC
# method.description: cell-based or functional assay
readout: IC50(MRC5/NHDF) Towne, virus neutralization

Find the recorded IC50(MRC5/NHDF) Towne, virus neutralization belonging to 14E1 (antibody, V domains shown, also called 14E1 (ms)) VH: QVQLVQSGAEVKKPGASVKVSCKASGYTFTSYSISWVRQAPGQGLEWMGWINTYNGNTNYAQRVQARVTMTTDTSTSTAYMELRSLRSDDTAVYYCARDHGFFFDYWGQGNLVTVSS VL: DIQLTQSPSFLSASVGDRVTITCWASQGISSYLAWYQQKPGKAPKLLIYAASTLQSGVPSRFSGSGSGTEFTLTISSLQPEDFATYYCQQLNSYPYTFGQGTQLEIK and report it. > 50 µg/mL
